These entries and their values trace back to ChEMBL document CHEMBL4808148.

# assay system: Protein deacetylase HDAC6 (Homo sapiens) (UniProt Q9UBN7)
# Sequence (Q9UBN7 whole entry): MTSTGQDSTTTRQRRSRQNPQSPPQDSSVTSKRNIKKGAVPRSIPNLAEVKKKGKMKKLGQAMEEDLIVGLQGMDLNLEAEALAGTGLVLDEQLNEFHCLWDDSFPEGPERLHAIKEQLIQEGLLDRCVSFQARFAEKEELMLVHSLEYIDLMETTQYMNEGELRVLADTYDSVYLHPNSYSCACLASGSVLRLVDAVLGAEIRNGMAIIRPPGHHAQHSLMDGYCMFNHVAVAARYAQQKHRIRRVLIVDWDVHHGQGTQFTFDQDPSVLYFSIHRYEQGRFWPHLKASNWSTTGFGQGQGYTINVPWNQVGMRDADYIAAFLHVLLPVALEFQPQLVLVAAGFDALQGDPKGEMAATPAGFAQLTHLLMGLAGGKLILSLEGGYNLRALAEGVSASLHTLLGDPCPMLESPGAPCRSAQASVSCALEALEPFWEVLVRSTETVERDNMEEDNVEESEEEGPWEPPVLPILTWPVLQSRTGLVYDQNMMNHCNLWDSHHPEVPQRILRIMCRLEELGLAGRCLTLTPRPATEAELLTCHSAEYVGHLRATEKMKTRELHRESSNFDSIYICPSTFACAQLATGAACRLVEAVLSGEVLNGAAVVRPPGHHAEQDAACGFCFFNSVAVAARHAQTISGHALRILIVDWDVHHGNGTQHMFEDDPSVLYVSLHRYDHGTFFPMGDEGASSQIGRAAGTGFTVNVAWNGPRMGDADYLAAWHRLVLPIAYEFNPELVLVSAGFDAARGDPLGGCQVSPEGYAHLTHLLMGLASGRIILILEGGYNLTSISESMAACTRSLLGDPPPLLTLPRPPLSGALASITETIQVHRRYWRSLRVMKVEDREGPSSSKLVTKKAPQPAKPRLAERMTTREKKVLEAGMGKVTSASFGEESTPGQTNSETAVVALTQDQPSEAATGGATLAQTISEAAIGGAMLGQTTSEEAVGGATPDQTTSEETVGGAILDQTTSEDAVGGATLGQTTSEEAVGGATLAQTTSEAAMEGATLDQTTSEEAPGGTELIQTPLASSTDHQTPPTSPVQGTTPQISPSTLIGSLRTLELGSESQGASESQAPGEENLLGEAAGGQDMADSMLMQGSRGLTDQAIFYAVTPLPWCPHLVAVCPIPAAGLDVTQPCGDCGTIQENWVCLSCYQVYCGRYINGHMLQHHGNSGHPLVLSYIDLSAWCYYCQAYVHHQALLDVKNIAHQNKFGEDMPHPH
# condition set: at 10 µM
Hit rate of the full screen: of about 5,600 compounds, about 390 (7%) showed an effect of 50% or more. For the sample, strong results were picked, then their nearest neighbours and some compounds at random.
parameter: inhibition
Output should be the measured figure followed by the unit it is expressed in.

O=C1NCCN1CCN1CCC(c2cn(-c3ccc(F)cc3)c3ccc(Cl)cc23)CC1 = 3.95%
O=C(Nc1ccccc1)N1CCC(Cc2cnc3ccccc3c2)CC1 = 27.7%

QUERY: State the recorded inhibition for this entry: `Cc1nc(C#Cc2ccnc(Cl)c2)c(C)n1-c1ccc(F)cc1`
RESULT: 5.29%

QUERY: State the recorded inhibition for this entry: `NC(=O)c1sc(-c2ccsc2)cc1N`
RESULT: 101%

QUERY: State the recorded inhibition for this entry: `O=C(N/N=C/c1ccc(O)c(O)c1)c1cc2ccccc2cc1O`
RESULT: 59.7%

QUERY: State the recorded inhibition for this entry: `Cc1cc(C)c(N)c(C#Cc2cccc(F)c2)n1`
RESULT: 103%

QUERY: State the recorded inhibition for this entry: `C[C@H]1[C@H](C)CC[C@]2(C(=O)O)CC[C@]3(C)C(=CC[C@@H]4[C@@]5(C)C[C@@H](O)[C@H](O)C(C)(C)[C@@H]5CC[C@]43C)[C@H]12`
RESULT: -2.75%

QUERY: State the recorded inhibition for this entry: `NC(=O)N/N=C/c1ccc(Oc2ccc(F)cc2)cc1`
RESULT: 2.96%

QUERY: State the recorded inhibition for this entry: `O=C(N/N=C/c1ccccc1O)c1ccccc1O`
RESULT: 98.6%

QUERY: State the recorded inhibition for this entry: `C(#Cc1nc2ncccc2nc1OCCN1CCCC1)c1ccccc1`
RESULT: 30.5%

QUERY: State the recorded inhibition for this entry: `CCN(CC)c1ccc(C(=C2C=CC(=[N+](CC)CC)C=C2)c2ccccc2)cc1`
RESULT: 101%
